Tested on: Fusarium oxysporum
Protocol description: Infection of tomato seedlings by F. oxysporum (soil application)
Format: in vivo
Measurement setup: read-out: Protection of tomato seedlings from infection by F. oxysporum
Endpoint name: pest or weed control at 8000 g/ha (%)
Please state the figure in %; there is no need to write the unit.

Input CCCCCCCCNc1cc(N)[n+](CCCCCCCC)c(Cl)c1C#N.[Cl-] . Output pest or weed control at 8000 g/ha: 50

Input CCCCCCNc1c(Br)c(N)[n+](CCCCCC)c(Cl)c1C#N . Output pest or weed control at 8000 g/ha: 50

Input CCCCCCCNc1cc(N)[n+](CCCCCCC)c(Cl)c1C#N . Output pest or weed control at 8000 g/ha: 50

Input N#Cc1c(NCc2ccccc2)cc(N)[n+](Cc2ccccc2)c1Cl . Output pest or weed control at 8000 g/ha: 50

Input CNc1cc(N)[n+](C)c(NCc2ccco2)c1C#N . Output pest or weed control at 8000 g/ha: 100

Input CCCCCCCCNc1c(C#N)c(NCCCCCC)cc(N)[n+]1CCCCCC . Output pest or weed control at 8000 g/ha: 50
